The compounds listed here are annotated with their EC50.
# system-tested: full-length B-Catenin (Uniprot ID P35222) (Homo sapiens, UniProt P35222)
# Construct: 65 nM full-length B-Catenin (Uniprot ID P35222)
# measurement-notes: Alphascreen binding assay (beta-catenin / biotin-TCF4 10-53)
# Experimental: In some embodiments, an assay is an Alphascreen binding assay. A useful protocol is described below as an example. Alphascreen binding assay: Using the AlphaScreen Histidine (Nickel Chelate) Detection Kit (PerkinElmer), peptide solutions were prepared in buffer (50 mM Tris pH 8.0, 250 mM NaCl, 2% glycerol, 0.03% Tween-20, 0.01% TritonX-100, 0.1% BSA w/v) using a 3-fold serial dilution from 10 uM to 5 nM. […]
Quick reminder: number only, in µM, skip the unit.

Use these answered entries as a reference point.
{"columns": ["compound", "EC50 / µM"],
 "data": [
  ["CC(=O)N1CCC[C@]12CC=CCCCC1(CCCC=CCCCCCC[C@@](C)(C(=O)N[C@@H](Cc3c[nH]cn3)C(=O)N[C@@H](Cc3c[nH]c4ccccc34)C(=O)N[C@@H](CCC(N)=O)C(N)=O)NC(=O)[C@H](C(C)C)NC(=O)[C@H](Cc3ccccc3)NC(=O)[C@H](C)NC(=O)[C@H](C)NC(=O)[C@H](CC(=O)O)NC(=O)[C@H](CC(=O)O)NC1=O)NC(=O)[C@H](C)NC(=O)[C@H](CC(=O)O)NC2=O (stereo partly drawn) [I-285]", 0.246],
  ["CC(=O)N[C@@H](Cc1ccccc1)C(=O)N[C@@H](CC(=O)O)C(=O)N[C@@H](C)C(=O)N[C@]1(C)CCCCCCC=CCOC(=O)N2CC[C@@](C(=O)N[C@@H](Cc3c(F)c(F)c(F)c(F)c3F)C(=O)N[C@@H](Cc3c[nH]c4ccccc34)C(=O)N[C@@H](CCC(N)=O)C(N)=O)(C2)NC(=O)[C@H](C(C)C)NC(=O)[C@H](Cc2ccccc2)NC(=O)[C@H](C)NC(=O)[C@H](C)NC(=O)[C@H](CC(=O)O)NC(=O)[C@H](CC(=O)O)NC1=O [I-226]", 7.63]
]}

Proceed to the following item.
Suppose we examine the compound CC(=O)N[C@@H](Cc1ccccc1)C(=O)N[C@@H](CC(=O)O)C(=O)N[C@@H](C)C(=O)N[C@]1(C)CCCCCCC=CCOC(=O)N2CC[C@@](C(=O)N[C@@H](Cc3ccc(C(=O)O)cc3)C(=O)N[C@@H](Cc3c[nH]c4ccccc34)C(=O)N[C@@H](CCC(N)=O)C(N)=O)(C2)NC(=O)[C@H](C(C)C)NC(=O)[C@H](Cc2ccccc2)NC(=O)[C@H](C)NC(=O)[C@H](C)NC(=O)[C@H](CC(=O)O)NC(=O)[C@H](CC(=O)O)NC1=O [I-110] ; what EC50 value has been reported? 8.5

###

The compounds listed here are annotated with their IC50.
# system-tested: beta-catenin/TCF4 engagement (Homo sapiens)
# Construct: expressed in transfected cells; host or cells: HEK293
# Sequence (P35222 1-781): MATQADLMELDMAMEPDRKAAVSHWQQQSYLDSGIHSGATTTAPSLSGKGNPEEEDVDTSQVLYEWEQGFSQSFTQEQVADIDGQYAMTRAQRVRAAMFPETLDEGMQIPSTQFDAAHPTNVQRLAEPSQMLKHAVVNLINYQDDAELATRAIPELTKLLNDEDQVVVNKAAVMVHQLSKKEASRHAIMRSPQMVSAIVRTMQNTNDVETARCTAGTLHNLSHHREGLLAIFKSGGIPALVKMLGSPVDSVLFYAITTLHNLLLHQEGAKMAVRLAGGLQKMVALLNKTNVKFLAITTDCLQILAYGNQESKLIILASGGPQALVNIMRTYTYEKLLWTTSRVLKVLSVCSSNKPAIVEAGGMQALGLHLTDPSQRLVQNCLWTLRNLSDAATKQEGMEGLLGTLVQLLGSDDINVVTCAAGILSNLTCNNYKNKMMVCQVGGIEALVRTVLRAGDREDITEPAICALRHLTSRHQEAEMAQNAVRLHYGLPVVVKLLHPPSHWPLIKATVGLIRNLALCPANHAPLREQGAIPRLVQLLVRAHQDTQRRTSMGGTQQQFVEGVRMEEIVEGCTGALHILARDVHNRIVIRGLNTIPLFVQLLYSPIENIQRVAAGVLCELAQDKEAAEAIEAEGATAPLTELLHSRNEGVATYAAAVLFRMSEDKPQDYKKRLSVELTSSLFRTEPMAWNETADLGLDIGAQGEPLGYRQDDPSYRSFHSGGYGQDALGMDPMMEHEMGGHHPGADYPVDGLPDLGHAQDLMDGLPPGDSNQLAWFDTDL
# measurement-notes: Nano-BRET target engagement assay (B-cat-Halo & TCF4-Luc in HEK293 cells)
# Assay type: cell-based
# particulars: absolute IC50; read-out: NanoBRET Abs IC50
Quick reminder: number only, in µM, skip the unit.

{"columns": ["compound", "unit-abbreviation", "IC50"],
 "data": [
  ["CC(=O)N1CCC[C@]12CC=CCCCC1(CCCC=CCCCOC(=O)N3CC[C@@](C(=O)N[C@@H](Cc4ccccc4C(F)(F)F)C(=O)N[C@@H](Cc4csc5c(F)cccc45)C(=O)N[C@@H](CCC(N)=O)C(N)=O)(C3)NC(=O)[C@H](CC(C)C)NC(=O)[C@H](Cc3ccccc3)NC(=O)[C@H](C)NC(=O)[C@H](C)NC(=O)[C@H](Cc3cccc(C(=O)O)c3)NC(=O)[C@H](CC(=O)O)NC1=O)NC(=O)[C@H](CC(C)(C)C)NC(=O)[C@H](CC(=O)O)NC2=O (some centres unmarked) [I-2488]", "µM", 3.6]
]}

Suppose we examine the compound CC(=O)N1CCC[C@]12CC=CCCCC1(CCCC=CCCCOC(=O)N3CC[C@@](C(=O)N[C@@H](Cc4ccccc4C(F)(F)F)C(=O)N[C@@H](Cc4cccc(Cl)c4)C(=O)N[C@@H](C)C(N)=O)(C3)NC(=O)[C@H](CC(C)C)NC(=O)[C@H](Cc3ccccc3)NC(=O)[C@H](C)NC(=O)[C@H](CCC(N)=O)NC(=O)[C@H](Cc3cccc(C(=O)O)c3)NC(=O)[C@H](CC(=O)O)NC1=O)NC(=O)[C@H](CC(C)(C)C)NC(=O)[C@H](CC(=O)O)NC2=O (some centres unmarked) [I-2227] ; what IC50 value has been reported? 6.3
